Please respond with reported growth for every item in the list.
- System: SF-539 CNS
- procedure text: NCI-60 one-dose screen, 48 h (100 = growth as untreated, 0 = no growth, -100 = all killed)
- assay context: 10 µM unless noted
About 83,000 compounds went through this panel and 20% of them were active in at least one assay; those are over-represented in the sample as a whole.
Note: unit % is implicit; provide only the numeric part.

What value of growth has been reported for the following compound? CCCCC1CCc2cccc3c(SCC(=O)N(C)c4ccc(Cl)cc4)cc[n+]1c23 (centres undefined) 110

Do the same for "Cc1ccc(C(=O)c2oc3ccc4c(C)cc(=O)oc4c3c2C)cc1" please 46.7

Do the same for "CCCCCCc1cc2cc(-c3csc(/C=C/c4ccccc4)n3)c(=O)oc2cc1O" please -77.3

Do the same for "Cc1nc(Nc2cn[nH]c2C(=O)Nc2ccc(CN3CCN(C)CC3)cc2)c2ccsc2n1" please 78.4

Do the same for "N#C/C(=C1\SC(=O)CN1c1ccccc1)c1nc2ccccc2s1" please 97.6

Do the same for O=C(c1nc2ccccc2[nH]1)C1C(c2cccc([N+](=O)[O-])c2)C2CC3CCCCC3N2[C@@]12C(=O)Nc1cc(Cl)ccc12 (some centres undefined) please 48.4

Do the same for "C#CCn1cc(C=C2C(=O)N(C)C(=O)N(C)C2=O)c2cc(Cl)ccc21" please 94.5

Do the same for "CCOC(=O)c1cc2c(n1Cc1cc(OC)cc(OC)c1)-c1oncc1CCC2" please 2.3

Do the same for "O=C(/C=C/c1ccccc1)c1ccc(Nc2nc(NCCO)nc(Nc3ccc(Cl)cc3)n2)cc1" please 73

Do the same for COc1ccc(/C=c2\sc3n(c2=O)NC2C(N=3)N(C)C(=O)N2C)cc1 (centres undefined) please 95.5

Do the same for COc1nc2c(c(=O)n1C)N=C1c3ccccc3C(=O)C1C(c1ccccc1)N2 (centres undefined) please 93.7

Do the same for "Cc1nc(Nc2ccccn2)sc1C(=O)/C=C/c1ccc(Cl)cc1" please -8.91

Do the same for "CN(CCc1ccccc1)C(=S)N(C(=O)c1ccc([N+](=O)[O-])cc1)c1ccc(Cl)cc1" please 92.6

Do the same for "O=c1oc2ccc(Br)cc2c(=O)n1-c1ccc(Br)cc1F" please -3.2

Do the same for "O=C(NC1CCN(Cc2ccccc2)CC1)c1cc(C(=O)NC2CCN(Cc3ccccc3)CC2)cc(C(=O)NC2CCN(Cc3ccccc3)CC2)c1" please 90.5

Do the same for O=C(c1nc2ccccc2[nH]1)C1C(c2ccc(F)cc2)C2CC3CCCCC3N2[C@@]12C(=O)Nc1ccc(Cl)cc12 (some centres undefined) please 55.5

Do the same for "O=C1/C(=C/c2cccc(O)c2)COc2ccc(O)cc21" please 92.3

Do the same for COC(=O)C1=C(C)NC(C)=C(C(=O)OC)C(N2C(=O)CCC2=O)C1 (centres undefined) please 103

Do the same for "C1CCN(c2nc(N3CCCCC3)nc(N3CCOCC3)n2)CC1" please 113

Do the same for "O=C(Cn1cc(COc2ncnc3c2cnn3-c2ccccc2)nn1)Nc1ccccn1" please 89.1

Do the same for "COc1ccc(Cn2c(Br)c3c(c2Br)-c2nc(NC(=O)c4ccc(OC)cc4)sc2CC3)cc1" please 52.1

Do the same for "CNCCNc1nc2ccccc2c2c(=O)c3cccc(C)c3sc12" please 52.4

Do the same for "O=C(Nc1ccc(C23CC4CC(CC(c5ccccc5)(C4)C2)C3)cc1)c1cccs1" please 92

Do the same for "CCOC(=O)C1(C(=O)OCC)N=C(c2ccccc2)C=C1c1ccccc1" please 94

Do the same for COC(=O)C1(C)CCC[C@]2(C)[C@H]3C[C@H]4C(C(C)C)=C[C@]3(CC[C@@H]12)[C@H]1[C@@H]4[C@@H](OCC#CCN2CCOCC2)CC[C@@H]1OCC#CCN1CCOCC1 (some centres undefined) please 86.2

Do the same for "COc1cc(C(=O)NN=C2c3ccccc3-c3ccccc32)cc(OC)c1OC" please 4.99

Do the same for N#Cc1c(N)nc2c(c1N)C(c1ccc(F)cc1)c1ccc(N)cc1O2 (centres undefined) please 103

Do the same for "COc1ccc(-c2cc(=O)c3c(OC)c4ccoc4c(/C=C/C=O)c3o2)cc1" please 14.8

Do the same for "COc1ccc(C2=Nn3c(NN)nnc3SC2)cc1" please 95.6

Do the same for "O=c1c(-c2nc3ccccc3[nH]2)cc2ccccc2n1Cc1cn(Cc2ccc(N3CCOCC3)cc2)nn1" please 52.6

Do the same for "CNCCNc1nc2ccccc2c2c(=O)c3cc(F)ccc3sc12" please 71.6

Do the same for "COc1cc(/C=C2\CN(C)C/C(=C\c3cc(CN4CCOCC4)c(O)c(OC)c3)C2=O)cc(CN2CCOCC2)c1O" please 34.8

Do the same for "COc1cc(/C=C2\CCC/C(=C\c3cc(CN4CCCCC4)c(O)c(OC)c3)C2=O)cc(CN2CCCCC2)c1O" please 73

Do the same for "Nc1ccc(-c2nn3c(CCC(=O)c4nc5ncccc5[nH]4)nnc3s2)c(O)c1" please 89.1

Do the same for "Cc1ccc2cccc(Oc3ccc(Nc4ncnc5onc(-c6ccccc6)c45)cc3)c2n1" please 79.8

Do the same for "C=C[C@@H]1CCC/C=C/[C@@H]2C[C@H](O)C[C@H]2[C@H](O)/C=C/C(=O)O1" please 30.3

Do the same for "CC1=C(CC(=O)c2cccc([N+](=O)[O-])c2)C(=O)c2ccccc2C1=O" please -22.1

Do the same for "N#C/C(=C\c1c(-c2ccccc2)[nH]c2ccccc12)S(=O)(=O)c1ccccc1" please -20.1

Do the same for "CCC(C)(C)C(=O)O[C@H]1C[C@@H](C)C=C2C=C[C@H](C)[C@H](CC[C@@H]3CC=CC(=O)O3)[C@H]21" please 96.1
